Sourced from patent US20210395239A1

target: human TLR7 (Homo sapiens, UniProt Q9NYK1); assay: HEK293-Blue-hTLR-7 cells assay (SEAP reporter, R848 stimulation); settings: HEK293-Blue-hTLR7 cells, R848, 20 hrs; read-out: HEK/hTLR7 IC50
Sequence (Q9NYK1 27-1049): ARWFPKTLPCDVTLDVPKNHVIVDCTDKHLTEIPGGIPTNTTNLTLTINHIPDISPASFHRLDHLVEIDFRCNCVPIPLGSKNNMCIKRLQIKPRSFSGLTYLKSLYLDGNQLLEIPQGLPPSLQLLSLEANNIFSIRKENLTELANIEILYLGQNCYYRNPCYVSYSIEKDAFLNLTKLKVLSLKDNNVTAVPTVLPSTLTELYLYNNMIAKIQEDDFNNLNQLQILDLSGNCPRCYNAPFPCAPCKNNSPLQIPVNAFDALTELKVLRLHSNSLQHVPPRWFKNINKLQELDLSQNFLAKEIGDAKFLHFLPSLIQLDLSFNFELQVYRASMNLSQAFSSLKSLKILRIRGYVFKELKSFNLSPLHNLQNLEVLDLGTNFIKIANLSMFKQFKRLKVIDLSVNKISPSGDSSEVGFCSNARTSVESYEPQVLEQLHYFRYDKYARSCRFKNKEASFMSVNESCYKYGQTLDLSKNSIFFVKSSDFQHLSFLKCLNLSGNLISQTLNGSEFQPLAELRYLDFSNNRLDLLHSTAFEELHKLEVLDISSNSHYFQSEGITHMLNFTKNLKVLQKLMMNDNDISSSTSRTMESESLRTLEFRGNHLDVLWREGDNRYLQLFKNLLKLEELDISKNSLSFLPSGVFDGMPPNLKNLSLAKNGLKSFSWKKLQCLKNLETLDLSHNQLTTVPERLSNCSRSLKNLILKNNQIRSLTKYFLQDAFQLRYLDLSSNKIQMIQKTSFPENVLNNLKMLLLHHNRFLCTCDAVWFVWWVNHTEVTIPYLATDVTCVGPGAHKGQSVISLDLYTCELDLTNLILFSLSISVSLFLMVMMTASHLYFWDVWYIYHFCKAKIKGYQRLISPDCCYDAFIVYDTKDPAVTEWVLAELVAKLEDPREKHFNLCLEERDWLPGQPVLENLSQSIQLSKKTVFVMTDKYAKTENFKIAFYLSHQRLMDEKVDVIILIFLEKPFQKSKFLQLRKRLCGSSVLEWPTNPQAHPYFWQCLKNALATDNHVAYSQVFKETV

{"SAMPLE_SMILES": "Cc1cc(N2CCN(C[C@H]3CN(c4ccc(C#N)n5ncc(F)c45)C[C@@H](C)O3)CC2)nc(N2CCNCC2)n1", "UNIT_OF_MEASURE": "nM", "IC50": 24}
{"SAMPLE_SMILES": "Cc1ccc(N2C[C@H](CN3CCN(c4ccnc(N5CCNCC5)n4)CC3)O[C@H](C)C2)c2nccnc12", "UNIT_OF_MEASURE": "nM", "IC50": 13}
{"SAMPLE_SMILES": "C[C@@H]1CN(c2ccc(C#N)n3ncc(F)c23)C[C@H](CN2CCN(c3ccc([C@@H]4CNCCO4)c(F)c3)CC2)O1", "UNIT_OF_MEASURE": "nM", "IC50": 23}
{"SAMPLE_SMILES": "C[C@@H]1CN(c2ccc(C#N)c3ncccc23)C[C@H](CN2CCN(c3ccc(N4CCNCC4)cn3)CC2)O1", "UNIT_OF_MEASURE": "nM", "IC50": 50}

---

molecular target: hTLR9 (Homo sapiens); assay: HEK293-Blue-hTLR-9 cells assay (SEAP reporter, ODN2006 stimulation); type: cell-based; set-up: host or cells: HEK293 (HEK-Blue hTLR9); settings: HEK293-Blue-hTLR9 cells, ODN2006, 20 hrs; read-out: HEK/hTLR9 IC50
Sequence (Q9NR96 26-1032): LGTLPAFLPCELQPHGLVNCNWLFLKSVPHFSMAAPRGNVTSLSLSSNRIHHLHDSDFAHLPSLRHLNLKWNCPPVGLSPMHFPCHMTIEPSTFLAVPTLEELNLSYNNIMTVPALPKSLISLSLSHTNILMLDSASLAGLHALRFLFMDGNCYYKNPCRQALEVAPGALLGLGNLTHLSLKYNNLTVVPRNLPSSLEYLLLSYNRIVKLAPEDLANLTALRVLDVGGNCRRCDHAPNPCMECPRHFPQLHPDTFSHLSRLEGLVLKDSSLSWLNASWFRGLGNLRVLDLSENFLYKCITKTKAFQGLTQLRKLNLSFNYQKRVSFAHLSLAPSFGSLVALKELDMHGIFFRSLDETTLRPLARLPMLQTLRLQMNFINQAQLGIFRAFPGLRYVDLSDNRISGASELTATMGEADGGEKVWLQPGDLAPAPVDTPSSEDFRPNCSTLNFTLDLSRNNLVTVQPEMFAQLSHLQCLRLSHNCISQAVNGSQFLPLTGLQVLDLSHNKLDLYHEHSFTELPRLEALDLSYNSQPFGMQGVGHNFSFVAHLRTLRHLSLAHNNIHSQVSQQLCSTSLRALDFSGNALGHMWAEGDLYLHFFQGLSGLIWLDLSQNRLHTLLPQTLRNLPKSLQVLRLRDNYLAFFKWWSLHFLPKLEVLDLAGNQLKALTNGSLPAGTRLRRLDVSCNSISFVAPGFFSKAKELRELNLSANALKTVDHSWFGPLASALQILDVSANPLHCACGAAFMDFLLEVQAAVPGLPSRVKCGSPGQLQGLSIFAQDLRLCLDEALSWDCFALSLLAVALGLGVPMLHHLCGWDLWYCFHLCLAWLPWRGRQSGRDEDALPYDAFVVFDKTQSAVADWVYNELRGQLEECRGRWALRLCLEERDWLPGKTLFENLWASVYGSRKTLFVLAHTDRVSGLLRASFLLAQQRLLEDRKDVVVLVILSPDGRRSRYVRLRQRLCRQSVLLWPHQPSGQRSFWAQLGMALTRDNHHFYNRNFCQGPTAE
The following compounds are listed with their measured IC50 values.

{"COMPOUND": "C[C@@H]1CN(c2ccc(C#N)c3ncccc23)C[C@H](CN2CCN(c3cc(N4CCNCC4)ncn3)CC2)O1", "IC50 (nM)": 52}
{"COMPOUND": "C[C@@H]1CN(c2ccc(C#N)c3ncccc23)C[C@H](CN2CCN(c3cnc(N4CCNCC4)nc3)CC2)O1", "IC50 (nM)": 32}
{"COMPOUND": "Cc1cc(N2CC(N)C2)nc(N2CCN(C[C@H]3CN(c4ccc(C#N)c5nccnc45)C[C@@H](C)O3)CC2)n1", "IC50 (nM)": 31}
{"COMPOUND": "Cc1cc(N2CCN(C[C@H]3CN(c4ccc(C#N)c5ncccc45)C[C@@H](C)O3)CC2)nc(NC2CNCC2C#N)n1 (stereo partly shown)", "IC50 (nM)": 38}
{"COMPOUND": "Cc1cc(N2CCN(C[C@H]3CN(c4ccc(C#N)c5ncccc45)C[C@@H](C)O3)CC2)nc(N2CCNCC2)n1", "IC50 (nM)": 67}
{"COMPOUND": "C[C@@H]1CN(c2ccc(C#N)n3ncc(F)c23)C[C@H](CN2CCN(c3ccc([C@@H]4CNCCO4)cc3)CC2)O1", "IC50 (nM)": 98}
{"COMPOUND": "C[C@@H]1CN(c2ccc(C#N)n3ncc(F)c23)C[C@H](CN2CCN(c3ccc(N4CC5(CN(C)C5)C4)nc3)CC2)O1", "IC50 (nM)": 70}

---

The following compounds are listed with their measured pIC50 values.
target: human TLR7 (Homo sapiens); assay: HEK293-Blue-hTLR-7 cells assay (SEAP reporter, R848 stimulation); conditions: HEK293-Blue-hTLR7 cells, R848, 20 hrs; read-out: HEK/hTLR7 IC50
pIC50: −log10 of the molar value.
MEASURED_METRIC: pIC50

{"SAMPLE_SMILES": "CO[C@@H]1CN(c2cc(C)nc(N3CCN(C[C@H]4CN(c5ccc(C#N)c6nccnc56)C[C@@H](C)O4)CC3)n2)C[C@H]1N", "SYSTEM_TESTED": "human TLR7 (Homo sapiens)", "MEASURED_METRIC": "pIC50", "QUANTITATIVE_RESULT": 8.10}
{"SAMPLE_SMILES": "C[C@@H]1CN(c2ccc(C#N)c3ncccc23)C[C@H](CN2CCN(c3cccc(N[C@H]4CNC[C@@H]4F)n3)CC2)O1", "SYSTEM_TESTED": "human TLR7 (Homo sapiens)", "MEASURED_METRIC": "pIC50", "QUANTITATIVE_RESULT": 7.19}
{"SAMPLE_SMILES": "[2H]c1ccc2c(N3C[C@H](CN4CCN(c5ccc(N6CC(C)(N)C6)nc5)CC4)O[C@H](C)C3)ccc(C#N)c2n1", "SYSTEM_TESTED": "human TLR7 (Homo sapiens)", "MEASURED_METRIC": "pIC50", "QUANTITATIVE_RESULT": 7.64}

---

target: CYP2D6 (Homo sapiens); construct: tissue BD-Gentest 452117; host or cells: human liver microsomes; experiment: CYP inhibition assay in human liver microsome, CYP2D6; format: in vitro ADME; conditions: human, human liver microsomes, probe dextromethorphan 5 μM, substrate dextromethorphan 5 μM, second value of 2C9/2D6/3A4
Sequence (P10635 whole entry): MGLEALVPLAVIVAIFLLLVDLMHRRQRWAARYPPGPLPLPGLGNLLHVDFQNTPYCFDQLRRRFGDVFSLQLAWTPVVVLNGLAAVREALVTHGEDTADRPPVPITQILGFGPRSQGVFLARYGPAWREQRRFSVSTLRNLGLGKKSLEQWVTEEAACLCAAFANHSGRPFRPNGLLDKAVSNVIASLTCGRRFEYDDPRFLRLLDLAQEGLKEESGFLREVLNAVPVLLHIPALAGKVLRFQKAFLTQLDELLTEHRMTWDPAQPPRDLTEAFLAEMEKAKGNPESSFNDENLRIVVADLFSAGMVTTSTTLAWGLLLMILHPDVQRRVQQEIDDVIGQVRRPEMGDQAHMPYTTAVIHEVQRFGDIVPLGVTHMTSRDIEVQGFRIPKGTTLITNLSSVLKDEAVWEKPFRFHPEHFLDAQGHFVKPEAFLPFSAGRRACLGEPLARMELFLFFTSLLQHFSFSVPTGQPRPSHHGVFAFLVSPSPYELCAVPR
The following compounds are listed with their measured inhibition at 10 min, 10 µM values.

{"COMPOUND": "[2H]c1ccc2c(N3C[C@H](CN4CCN(c5ccc(N6CC(C)(N)C6)nc5)CC4)O[C@H](C)C3)ccc(C#N)c2n1 [Example 132]", "UNIT_OF_MEASURE": "%", "inhibition at 10 min, 10 µM": -2.5}
{"COMPOUND": "Cc1ccc(N2C[C@H](CN3CCN(c4ccnc(N5CCNCC5)n4)CC3)O[C@H](C)C2)c2nccnc12 [Example 117]", "UNIT_OF_MEASURE": "%", "inhibition at 10 min, 10 µM": 4.5}
{"COMPOUND": "C[C@@H]1CN(c2ccc(C#N)n3ncc(F)c23)C[C@H](CN2CC(c3ccc(N4C[C@@H]5C[C@H]4CN5)nc3)C2)O1 [Example 165]", "UNIT_OF_MEASURE": "%", "inhibition at 10 min, 10 µM": 17.5}
{"COMPOUND": "C[C@@H]1CN(c2ccc(C#N)c3ncccc23)C[C@H](CN2CCC(c3cccc(N4CCNCC4)c3)C2)O1 (some centres unmarked) [Example 1]", "UNIT_OF_MEASURE": "%", "inhibition at 10 min, 10 µM": 5}
{"COMPOUND": "C[C@@H]1CN(c2ccc(C#N)c3ncccc23)C[C@H](CN2CCN(c3ccnc(N4CCNCC4)n3)CC2)O1 [Example 15]", "UNIT_OF_MEASURE": "%", "inhibition at 10 min, 10 µM": -2.5}
{"COMPOUND": "[2H]c1ccc2c(N3C[C@H](CN4CCN(c5ccc(N[C@H]6CNC[C@H]6F)nc5)CC4)O[C@H](C)C3)ccc(C#N)c2n1 [Example 162]", "UNIT_OF_MEASURE": "%", "inhibition at 10 min, 10 µM": 1}
{"COMPOUND": "C[C@@H]1CN(c2ccc(C#N)n3ncc(F)c23)C[C@H](CN2CCN(c3ccc(N[C@H]4CNC[C@H]4F)nc3)CC2)O1 [Example 167]", "UNIT_OF_MEASURE": "%", "inhibition at 10 min, 10 µM": 11.5}
{"COMPOUND": "C[C@@H]1CN(c2ccc(C#N)c3ncccc23)C[C@H](CN2CCN(c3nc(N4CCNCC4)ncc3F)CC2)O1 [Example 45]", "UNIT_OF_MEASURE": "%", "inhibition at 10 min, 10 µM": 5}
{"COMPOUND": "Cc1cc(N2CCNCC2)nc(N2CCN(C[C@H]3CN(c4ccc(C#N)c5nccnc45)C[C@@H](C)O3)CC2)n1 [Example 114]", "UNIT_OF_MEASURE": "%", "inhibition at 10 min, 10 µM": 32}
{"COMPOUND": "[2H]c1ccc2c(N3C[C@H](CN4CCN(c5ccc(N6CC7(CNCCO7)C6)nc5)CC4)O[C@H](C)C3)ccc(C#N)c2n1 [Example 152]", "UNIT_OF_MEASURE": "%", "inhibition at 10 min, 10 µM": 12.5}
{"COMPOUND": "C[C@@H]1CN(c2ccc(C#N)n3nccc23)C[C@H](CN2CC(c3ccc(N4CC(C)(N)C4)cc3)C2)O1 [Example 163]", "UNIT_OF_MEASURE": "%", "inhibition at 10 min, 10 µM": 6.5}
{"COMPOUND": "C[C@@H]1CN(c2ccc(C#N)c3ncccc23)C[C@H](CN2CCN(c3ccnc(N4CCNCC(O)C4)n3)CC2)O1 (some centres unmarked) [Example 25]", "UNIT_OF_MEASURE": "%", "inhibition at 10 min, 10 µM": 5.5}
{"COMPOUND": "C[C@@H]1CN(c2ccc(C#N)c3ncccc23)C[C@H](CN2CCN(c3nccc(N4CCNCC4)n3)CC2)O1 [Example 14]", "UNIT_OF_MEASURE": "%", "inhibition at 10 min, 10 µM": 16.5}
{"COMPOUND": "CO[C@@H]1CN(c2ccc(C3CN(C[C@H]4CN(c5ccc(C#N)n6ncc(F)c56)C[C@@H](C)O4)C3)cn2)C[C@H]1N [Example 164]", "UNIT_OF_MEASURE": "%", "inhibition at 10 min, 10 µM": 26}
